test: self-splicing fitness, log relative to wild type (ln ratio); higher = more splicing; Tetrahymena group I intron in knt gene, E. coli kanamycin selection, DiMSum; sequences stand for … in CUCUCU…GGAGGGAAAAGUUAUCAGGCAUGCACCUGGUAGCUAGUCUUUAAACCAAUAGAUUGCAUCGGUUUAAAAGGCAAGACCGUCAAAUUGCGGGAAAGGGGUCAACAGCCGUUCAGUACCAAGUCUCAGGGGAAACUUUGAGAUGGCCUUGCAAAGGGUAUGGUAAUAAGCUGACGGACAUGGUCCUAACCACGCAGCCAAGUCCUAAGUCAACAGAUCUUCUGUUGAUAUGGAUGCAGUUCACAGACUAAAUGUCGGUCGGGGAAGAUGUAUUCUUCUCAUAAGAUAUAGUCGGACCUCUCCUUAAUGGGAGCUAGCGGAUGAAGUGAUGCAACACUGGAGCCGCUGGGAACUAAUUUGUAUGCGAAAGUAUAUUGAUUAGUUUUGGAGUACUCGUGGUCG; settings: 37 °C;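 note: selection with 25 µg/mL kanamycin versus none on LB agar overnight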
Rule: self-splicing fitness (ln) under -2 gives class 0, otherwise class 1.

AAUCAGCAAUAUUACGUGAC class 1
ACAAAGCAAUAUUACGCCAU class 0
UCUCAGCAAUAUUACGCUGA class 0
GGUAAGCAAUAUUACGCCGG class 1
AGAUAGCAAUAUUACGAUGA class 1

Prompt: Determine whether measured self-splicing fitness (ln) meets or exceeds -2 for UAAGAGCAAUAUUACGGCGG
Completion: class 1

Prompt: Determine whether measured self-splicing fitness (ln) meets or exceeds -2 for UUCUAGCAAUAUUACGAGCG
Completion: class 1

Prompt: Determine whether measured self-splicing fitness (ln) meets or exceeds -2 for UACAAGCAAUAUUACGGUCG
Completion: class 1

* * *

assay: self-splicing fitness, log relative to wild type (ln ratio); higher = more splicing; Tetrahymena group I intron in knt gene, E. coli kanamycin selection, DiMSum; sequences stand for … in CUCUCU…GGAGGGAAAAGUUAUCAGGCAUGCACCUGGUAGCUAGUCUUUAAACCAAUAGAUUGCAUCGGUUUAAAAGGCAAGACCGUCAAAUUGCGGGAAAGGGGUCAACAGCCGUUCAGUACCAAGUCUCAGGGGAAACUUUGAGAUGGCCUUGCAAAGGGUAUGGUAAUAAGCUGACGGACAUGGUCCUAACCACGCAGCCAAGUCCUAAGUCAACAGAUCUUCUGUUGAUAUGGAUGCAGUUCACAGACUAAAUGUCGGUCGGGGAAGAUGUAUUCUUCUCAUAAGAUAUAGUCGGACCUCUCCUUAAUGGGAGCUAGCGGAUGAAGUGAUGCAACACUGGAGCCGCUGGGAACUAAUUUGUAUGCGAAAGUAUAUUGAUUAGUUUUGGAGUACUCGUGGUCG; settings: 30 °C
Class membership depends on self-splicing fitness (ln) alone; the intervals are range A: < -2; range B: ≥ -2 and < -1; range C: ≥ -1

Use these answered entries as a reference point.
GCUAAGCAAUAUUACGUACC range C
GGGAAGCAAUAUUACGGACC range A
CCUAAGCAAUAUUACGGAAG range A

Prompt: Just checking, what class would you give GACGAGCAAUAUUACGUUCG here?
Completion: range A

Prompt: Just checking, what class would you give CCAUAGCAAUAUUACGCAGG here?
Completion: range A

* * *

assay: self-splicing fitness, log relative to wild type (ln ratio); higher = more splicing; Tetrahymena group I intron in knt gene, E. coli kanamycin selection, DiMSum; sequences stand for … in CUCUCU…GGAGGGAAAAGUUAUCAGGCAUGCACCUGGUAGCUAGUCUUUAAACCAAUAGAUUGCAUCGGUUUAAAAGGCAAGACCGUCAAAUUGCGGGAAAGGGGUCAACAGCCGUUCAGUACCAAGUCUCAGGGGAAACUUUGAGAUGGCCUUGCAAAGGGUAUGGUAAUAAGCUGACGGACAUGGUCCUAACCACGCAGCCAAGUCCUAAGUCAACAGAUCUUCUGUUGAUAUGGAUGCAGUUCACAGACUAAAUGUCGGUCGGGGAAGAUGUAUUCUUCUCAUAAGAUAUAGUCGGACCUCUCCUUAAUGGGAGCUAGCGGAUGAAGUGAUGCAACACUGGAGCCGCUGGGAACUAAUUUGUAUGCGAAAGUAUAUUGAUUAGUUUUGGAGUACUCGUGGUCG; details: 30 °C
quantityMeasured: self-splicing fitness (ln)
API doc: respond with a numeric literal and nothing else, no unit.

CGCGAGCAAUAUUACGUGAA -3.57
CCUGAGCAAUAUUACGUGUA -3.53

Prompt: Please give the measured self-splicing fitness (ln) for this sequence: GCAGAGCAAUAUUACGCGAU
Completion: -2.94

Prompt: Please give the measured self-splicing fitness (ln) for this sequence: ACUGAGCAAUAUUACGCACA
Completion: -2.37

Prompt: Please give the measured self-splicing fitness (ln) for this sequence: AUGGAGCAAUAUUACGUAGU
Completion: -2.7

Prompt: Please give the measured self-splicing fitness (ln) for this sequence: ACACAGCAAUAUUACGGACA
Completion: -1.63

Prompt: Please give the measured self-splicing fitness (ln) for this sequence: CUACAGCAAUAUUACGGUUU
Completion: -3.8

Prompt: Please give the measured self-splicing fitness (ln) for this sequence: UACCAGCAAUAUUACGGAGC
Completion: -3

Prompt: Please give the measured self-splicing fitness (ln) for this sequence: UGUCAGCAAUAUUACGGGGG
Completion: -2.6

Prompt: Please give the measured self-splicing fitness (ln) for this sequence: CCUAAGCAAUAUUACGGGCG
Completion: -2.15

* * *

assay: self-splicing fitness, log relative to wild type (ln ratio); higher = more splicing; Tetrahymena group I intron in knt gene, E. coli kanamycin selection, DiMSum; sequences stand for … in CUCUCU…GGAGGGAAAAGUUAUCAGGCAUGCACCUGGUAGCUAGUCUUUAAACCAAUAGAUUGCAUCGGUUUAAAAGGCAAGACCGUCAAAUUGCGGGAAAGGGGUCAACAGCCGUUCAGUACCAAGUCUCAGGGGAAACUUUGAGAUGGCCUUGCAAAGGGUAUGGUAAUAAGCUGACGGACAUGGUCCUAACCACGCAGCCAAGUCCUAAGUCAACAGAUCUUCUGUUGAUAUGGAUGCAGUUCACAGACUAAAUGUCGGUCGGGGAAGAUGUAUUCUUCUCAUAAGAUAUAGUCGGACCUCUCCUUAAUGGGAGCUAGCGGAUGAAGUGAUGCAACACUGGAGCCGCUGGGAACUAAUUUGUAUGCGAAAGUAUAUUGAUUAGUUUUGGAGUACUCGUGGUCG; conditions: 37 °C
quantityMeasured: self-splicing fitness (ln)
API doc: respond with a numeric literal and nothing else, no unit.

Please review the following examples before continuing.
UCGCAGCAAUAUUACGAGUC -2.6
AUGCAGCAAUAUUACGAUUG -2.83
CGGCAGCAAUAUUACGUUAG 0.0318
CCCAAGCAAUAUUACGUGAG -0.85
CAUAAGCAAUAUUACGCGAG -1.39

Prompt: Please give the measured self-splicing fitness (ln) for this sequence: UCGUAGCAAUAUUACGCCCG
Completion: -0.113

Prompt: Please give the measured self-splicing fitness (ln) for this sequence: ACUGAGCAAUAUUACGUUCG
Completion: -0.355

Prompt: Please give the measured self-splicing fitness (ln) for this sequence: GUAUAGCAAUAUUACGAUGU
Completion: -0.00633

Prompt: Please give the measured self-splicing fitness (ln) for this sequence: GUCUAGCAAUAUUACGAUUC
Completion: 0.284

Prompt: Please give the measured self-splicing fitness (ln) for this sequence: CAAUAGCAAUAUUACGAUGA
Completion: -1.54

Prompt: Please give the measured self-splicing fitness (ln) for this sequence: UAACAGCAAUAUUACGUUUA
Completion: -0.563

Prompt: Please give the measured self-splicing fitness (ln) for this sequence: CCAAAGCAAUAUUACGAGGU
Completion: -1.71

Prompt: Please give the measured self-splicing fitness (ln) for this sequence: UCGUAGCAAUAUUACGCAUC
Completion: -2.63

Prompt: Please give the measured self-splicing fitness (ln) for this sequence: UUACAGCAAUAUUACGAUGA
Completion: 0.596

Prompt: Please give the measured self-splicing fitness (ln) for this sequence: GGAUAGCAAUAUUACGUUCA
Completion: -0.00255

Prompt: Please give the measured self-splicing fitness (ln) for this sequence: UAACAGCAAUAUUACGCUGA
Completion: -1.61

Prompt: Please give the measured self-splicing fitness (ln) for this sequence: CUACAGCAAUAUUACGAUCG
Completion: 0.736

Prompt: Please give the measured self-splicing fitness (ln) for this sequence: UUCUAGCAAUAUUACGUGGU
Completion: -0.962

Prompt: Please give the measured self-splicing fitness (ln) for this sequence: CUUAAGCAAUAUUACGCUGA
Completion: -1.17

Prompt: Please give the measured self-splicing fitness (ln) for this sequence: UAAUAGCAAUAUUACGACCU
Completion: -0.4

Prompt: Please give the measured self-splicing fitness (ln) for this sequence: UGGUAGCAAUAUUACGUAAU
Completion: -0.903

Prompt: Please give the measured self-splicing fitness (ln) for this sequence: CACAAGCAAUAUUACGGUGC
Completion: -2.72

Prompt: Please give the measured self-splicing fitness (ln) for this sequence: GCGAAGCAAUAUUACGAGAG
Completion: -1.91
